Please respond with reported INHIBITION for every item in the list.
Test system: Plasmodium berghei
Method description: Screen against P. berghei liver stage (PbLuc), transformed with Luciferase, at 10uM
Assay type: functional, HepG2
Condition: tested at 10 uM
About 8,600 (12%) of roughly 69,000 compounds showed an effect of 50% or more. For the sample, strong results were picked, then their nearest neighbours and some compounds at random.
Give the value, in units of %, as a plain number.

IN: Given "Cc1cc(CNS(=O)(=O)CCCC#N)ccc1N(C)C" , respond with its INHIBITION.
OUT: 33.1

IN: Given CCCS(=O)(=O)NC1CCc2c(ccc(=O)n2CC2CC2)C1 (stereo not given) , respond with its INHIBITION.
OUT: 43.9

IN: Given "Cc1c(C)n(Cc2ccncc2)c2nc3c(c(N)c12)CCCCC3" , respond with its INHIBITION.
OUT: 70.3

IN: Given "Cn1ccnc1CN1CCCN(C(=O)c2ccc(O)nc2)CC1" , respond with its INHIBITION.
OUT: -24.3

IN: Given CC(C)c1nn(C)c(N(C)C)c1CNC1CCOc2c(F)cccc21 (stereo not given) , respond with its INHIBITION.
OUT: -12.5

IN: Given COc1cccc(CN2CC(O)CN(C(=O)C3CCC3)CC2=O)c1OC (stereo not given) , respond with its INHIBITION.
OUT: 49.5

IN: Given "CS(=O)(=O)N1CC[C@]2(C[C@@H](Oc3ccccn3)CO2)C1" , respond with its INHIBITION.
OUT: 29

IN: Given "O=c1ccc2c(n1Cc1cccnc1)CCN(Cc1ccoc1)CC2" , respond with its INHIBITION.
OUT: -110

IN: Given "O=C([C@@H]1CCCO1)N1CCN(Cc2ccncc2)c2ncccc2C1" , respond with its INHIBITION.
OUT: 40.3

IN: Given CCc1nccn1C1CCCN(C(=O)Cc2cn3ccsc3n2)C1 (stereo not given) , respond with its INHIBITION.
OUT: -23.9

IN: Given O=c1ccc2c(n1CC1CC1)CCC(NS(=O)(=O)C1CC1)C2 (stereo not given) , respond with its INHIBITION.
OUT: 14.8

IN: Given "NC1CCN(c2nccn3c(=O)[nH]nc23)CC1" , respond with its INHIBITION.
OUT: 48.2

IN: Given "Cn1cc(CN2CC[C@H]3OCC[C@@H](C(=O)NC4CCCC4)[C@@H]3C2)cn1" , respond with its INHIBITION.
OUT: 10

IN: Given O=c1ccc2c(n1CC1CC1)CCC(NCc1cccs1)C2 (stereo not given) , respond with its INHIBITION.
OUT: 92.8

IN: Given COc1ncccc1CNC1CCc2c(ccc(=O)n2CC2CC2)C1 (stereo not given) , respond with its INHIBITION.
OUT: 55.7

---

Please respond with reported INHIBITION for every item in the list.
Test system: Plasmodium berghei
Method description: Screen against P. berghei liver stage (PbLuc), transformed with Luciferase, at 10uM
Type: functional, HepG2
Condition: tested at 10 uM
About 8,600 (12%) of roughly 69,000 compounds showed an effect of 50% or more. The list comes from a sample in which strong results are over-represented; it also holds close analogues and randomly drawn compounds.
Give the value, in units of %, as a plain number.

IN: Fill: INHIBITION (Plasmodium berghei) for this molecule "COCC(=O)N1CC[C@H]2C[C@H](C)O[C@@H]2C1"
OUT: 38.1

IN: Fill: INHIBITION (Plasmodium berghei) for this molecule "O=C(NCc1nc(NC2CCCC2)c2cc(Cl)ccc2n1)c1cncs1"
OUT: 68.6

IN: Fill: INHIBITION (Plasmodium berghei) for this molecule "Cc1ccc(N2CCN(C(=O)[C@@H]3CCC(=O)N3)CC2=O)cc1"
OUT: 4.95

IN: Fill: INHIBITION (Plasmodium berghei) for this molecule "O=C(NCc1nc(NC2CCCC2)c2cc(Cl)ccc2n1)c1ccoc1"
OUT: 89

IN: Fill: INHIBITION (Plasmodium berghei) for this molecule CC1CN(C)CCN1C(=O)Nc1nc(-c2ccco2)cs1 (centres undefined)
OUT: 14

IN: Fill: INHIBITION (Plasmodium berghei) for this molecule "O=C1[C@H]2CN(CC3CCOCC3)C[C@H]2CN1Cc1cccc(F)c1"
OUT: -53.6

IN: Fill: INHIBITION (Plasmodium berghei) for this molecule Cc1ccc(CNC(C)c2nnc3n2CCCC3)o1 (centres undefined)
OUT: -4.48

IN: Fill: INHIBITION (Plasmodium berghei) for this molecule "COc1ccc(-n2cc(CNC(=O)c3cscn3)nn2)cc1"
OUT: -27.3

IN: Fill: INHIBITION (Plasmodium berghei) for this molecule O=C(CCN1CCNCC1)N1CCC2(CC1)c1ccccc1CC2O (centres undefined)
OUT: 31.6

IN: Fill: INHIBITION (Plasmodium berghei) for this molecule "CCn1ncc(CN2C[C@@H]3CCCN3C[C@H]2CCSC)c1C"
OUT: 2.71

IN: Fill: INHIBITION (Plasmodium berghei) for this molecule CN(C)C(=O)CCC1CCCN(Cc2ccc(-c3cccnc3)cc2)C1 (centres undefined)
OUT: 29.8

IN: Fill: INHIBITION (Plasmodium berghei) for this molecule "CNC(=O)Cc1ccc(NC(=O)NCc2ncc(C)s2)cc1"
OUT: 64

IN: Fill: INHIBITION (Plasmodium berghei) for this molecule "CC(=O)c1cccc(NC(=O)CCn2nc(-c3cccs3)oc2=O)c1"
OUT: 29.2

IN: Fill: INHIBITION (Plasmodium berghei) for this molecule CC(Cn1cccn1)NC(=O)NCc1ccc(S(C)(=O)=O)cc1 (centres undefined)
OUT: 19.5

IN: Fill: INHIBITION (Plasmodium berghei) for this molecule CCc1cc(=O)[nH]c(-c2ccc(NC(C)COC)nc2)n1 (centres undefined)
OUT: -10.3

IN: Fill: INHIBITION (Plasmodium berghei) for this molecule Cc1cc(C)n(CC2CCCN2C(=O)Cc2c(C)nn(C)c2C)n1 (centres undefined)
OUT: -43.5

IN: Fill: INHIBITION (Plasmodium berghei) for this molecule CC(NCc1ccc(Cl)o1)c1nnc2n1CCCC2 (centres undefined)
OUT: 15.1

IN: Fill: INHIBITION (Plasmodium berghei) for this molecule "CCc1cc(-c2ccnc3c2ccn3C)nc(N2CCOCC2)n1"
OUT: 51.5

IN: Fill: INHIBITION (Plasmodium berghei) for this molecule "CCn1cc(NC(=O)C2CCN(Cc3nc(C)c(C)o3)CC2)cn1"
OUT: 8.31
